ENDPOINT_LABEL: melting point

Record excerpt, results attached:
CC(C)NC(=O)NCCn1c(CO)nc2c(N)nc3ccccc3c21	> 240 °C
CC(C)(Cn1c(CCO)nc2c(N)nc3ccccc3c21)NS(C)(=O)=O	209 to 212 °C
CS(=O)(=O)NCCCCn1c(CO)nc2c(N)nc3ccccc3c21	216 to 219 °C
CC(C)[C@H](NC(=O)OCc1ccccc1)C(=O)OCc1nc2c(N)nc3ccccc3c2n1CCCCNS(C)(=O)=O	99 to 100 °C
CC(C)(Cn1c(CO)nc2c(N)nc3ccccc3c21)CS(C)(=O)=O	230 to 232 °C
CC(C)NC(=O)NC(C)(C)Cn1c(CO)nc2c(N)nc3ccccc3c21	196 to 199 °C

Now look at this one.
Entry under test: Cc1ccc(S(=O)(=O)NCCCn2c(CCO)nc3c(N)nc4ccccc4c32)cc1 . Its melting point was 231 to 232 °C

---

In this section we review reported melting point values for a set of molecules.
Counter-ions that a name gives are not always drawn.

Record excerpt, results attached:
Nc1nc2ccccc2c2c1nc(CCO)n2CCCNC(=O)c1cc2ccccc2cn1	245 to 246 °C
CC(C)(N)Cn1c(CO)nc2c(N)nc3ccccc3c21	248 to 250 °C
CC(C)(Cn1c(CO)nc2c(N)nc3ccccc3c21)NS(C)(=O)=O	262 to 265 °C
CC(C)[C@H](N)C(=O)OCc1nc2c(N)nc3ccccc3c2n1CCCCNS(C)(=O)=O	161 to 163 °C
Nc1nc2ccccc2c2c1nc(CO)n2CC1CCOCC1	239 to 241 °C
Nc1nc2ccccc2c2c1nc(CO)n2CCCCNC(=O)C1CCCC1	183 to 186 °C
CC(C)C(=O)NCCCCn1c(CO)nc2c(N)nc3ccccc3c21 (as salt: salt)	222 to 224 °C
CC(C)(Cn1c(CO)nc2c(N)nc3ccccc3c21)NC(=O)C1CCCCC1	248 to 250 °C

Entry under test: CC(C)C(=O)NCCCn1c(CCO)nc2c(N)nc3ccccc3c21 . Its melting point was 196 to 198 °C

Entry under test: CS(=O)(=O)NCCCCn1c(CCO)nc2c(N)nc3ccccc3c21 . Its melting point was 206 to 208 °C

Source of measurements: patent US8178677B2
